Please go through the items and note down their pEC50.
tested on: ANGPTL4, a PPARG target gene, in HT1197 (RXRA S427F mutation) cells; assay: Bladder cancer pharmacodynamic assay, HT1197 cell assay (qPCR of PPARG target gene ANGPTL4); type: cell-based; settings: Homo sapiens, 24 hours treatment, qPCR
Please note pEC50 is a logarithmic value: minus log10 of concentration in mol/L. Answer with that number alone.

So what pEC50 did N#Cc1ccc(Cl)c(-c2cc(=O)c3c(F)cc(F)cc3[nH]2)n1 get with ANGPTL4, a PPARG target gene, in HT1197 (RXRA S427F mutation) cells?
10.05

So what pEC50 did CS(=O)(=O)c1cnc(C#N)cc1-c1cc(=O)c2c(F)cc(F)cc2[nH]1 get with ANGPTL4, a PPARG target gene, in HT1197 (RXRA S427F mutation) cells?
9.31

So what pEC50 did N#Cc1cc(-c2cc(=O)c3c(F)cc(F)cc3[nH]2)c(Cl)cn1 get with ANGPTL4, a PPARG target gene, in HT1197 (RXRA S427F mutation) cells?
9.85

So what pEC50 did CN1CCN(c2c(F)cc3[nH]c(-c4cc(C#N)ncc4Cl)cc(=O)c3c2F)CC1 get with ANGPTL4, a PPARG target gene, in HT1197 (RXRA S427F mutation) cells?
8.51
